Data provenance: ChEMBL document CHEMBL1154412

Test system: Enterococcus faecalis
Assay: Antimicrobial activity against vancomycin-susceptible Enterococcus faecalis after 20 to 24 hrs by broth microdilution method
Format: functional
property name: MIC50 (µg/mL)
Expressed in µg/mL, but write only the number.

Please review the entries below; each comes with its answer.
• O=C(O)c1cn(C2CC2)c2cc(N3CCNCC3)c(F)cc2c1=O = 1
• CC1(C)S[C@@H]2[C@H](NC(=O)[C@H](N)c3ccccc3)C(=O)N2[C@H]1C(=O)O = 1
• CCCCCCCCCC(=O)N[C@@H](Cc1c[nH]c2ccccc12)C(=O)N[C@H](CC(N)=O)C(=O)N[C@@H](CC(=O)O)C(=O)N[C@@H]1C(=O)NCC(=O)N[C@@H](CCCN)C(=O)N[C@@H](CC(=O)O)C(=O)N[C@H](C)C(=O)N[C@@H](CC(=O)O)C(=O)NCC(=O)N[C@H](CO)C(=O)N[C@@H]([C@H](C)CC(=O)O)C(=O)N[C@@H](CC(=O)c2ccccc2N)C(=O)O[C@@H]1C = 1
• CCCCCCCCCCNCCN[C@@]1(C)C[C@H](O[C@H]2[C@H](Oc3c4cc5cc3Oc3ccc(cc3Cl)[C@@H](O)[C@@H](NC(=O)[C@@H](CC(C)C)NC)C(=O)N[C@@H](CC(N)=O)C(=O)N[C@H]5C(=O)N[C@H]3C(=O)N[C@H](C(=O)N[C@H](C(=O)O)c5cc(O)c(CNCP(=O)(O)O)c(O)c5-c5cc3ccc5O)[C@H](O)c3ccc(c(Cl)c3)O4)O[C@H](CO)[C@@H](O)[C@@H]2O)O[C@@H](C)[C@H]1O = 0.25
• CC(=O)NC[C@H]1CN(c2ccc(N3CCOCC3)c(F)c2)C(=O)O1 = 2

Request: Notebook entry, Enterococcus faecalis assay: MIC50 of CN[C@H](CC(C)C)C(=O)N[C@H]1C(=O)N[C@@H](CC(N)=O)C(=O)N[C@H]2C(=O)N[C@H]3C(=O)N[C@H](C(=O)N[C@H](C(=O)O)c4cc(O)cc(O)c4-c4cc3ccc4O)[C@H](O)c3ccc(c(Cl)c3)Oc3cc2cc(c3O[C@@H]2O[C@H](CO)[C@@H](O)[C@H](O)[C@H]2O[C@H]2C[C@](C)(N)[C@H](O)[C@H](C)O2)Oc2ccc(cc2Cl)[C@H]1O = ?
Response: 2
